From: paper PMC5708334

Known IC50 of a selection of compounds
# Tested system: BMP2K (BMP-2-inducible protein kinase) (Homo sapiens, UniProt Q9NSY1)
# Sequence (Q9NSY1 whole entry, species assumed): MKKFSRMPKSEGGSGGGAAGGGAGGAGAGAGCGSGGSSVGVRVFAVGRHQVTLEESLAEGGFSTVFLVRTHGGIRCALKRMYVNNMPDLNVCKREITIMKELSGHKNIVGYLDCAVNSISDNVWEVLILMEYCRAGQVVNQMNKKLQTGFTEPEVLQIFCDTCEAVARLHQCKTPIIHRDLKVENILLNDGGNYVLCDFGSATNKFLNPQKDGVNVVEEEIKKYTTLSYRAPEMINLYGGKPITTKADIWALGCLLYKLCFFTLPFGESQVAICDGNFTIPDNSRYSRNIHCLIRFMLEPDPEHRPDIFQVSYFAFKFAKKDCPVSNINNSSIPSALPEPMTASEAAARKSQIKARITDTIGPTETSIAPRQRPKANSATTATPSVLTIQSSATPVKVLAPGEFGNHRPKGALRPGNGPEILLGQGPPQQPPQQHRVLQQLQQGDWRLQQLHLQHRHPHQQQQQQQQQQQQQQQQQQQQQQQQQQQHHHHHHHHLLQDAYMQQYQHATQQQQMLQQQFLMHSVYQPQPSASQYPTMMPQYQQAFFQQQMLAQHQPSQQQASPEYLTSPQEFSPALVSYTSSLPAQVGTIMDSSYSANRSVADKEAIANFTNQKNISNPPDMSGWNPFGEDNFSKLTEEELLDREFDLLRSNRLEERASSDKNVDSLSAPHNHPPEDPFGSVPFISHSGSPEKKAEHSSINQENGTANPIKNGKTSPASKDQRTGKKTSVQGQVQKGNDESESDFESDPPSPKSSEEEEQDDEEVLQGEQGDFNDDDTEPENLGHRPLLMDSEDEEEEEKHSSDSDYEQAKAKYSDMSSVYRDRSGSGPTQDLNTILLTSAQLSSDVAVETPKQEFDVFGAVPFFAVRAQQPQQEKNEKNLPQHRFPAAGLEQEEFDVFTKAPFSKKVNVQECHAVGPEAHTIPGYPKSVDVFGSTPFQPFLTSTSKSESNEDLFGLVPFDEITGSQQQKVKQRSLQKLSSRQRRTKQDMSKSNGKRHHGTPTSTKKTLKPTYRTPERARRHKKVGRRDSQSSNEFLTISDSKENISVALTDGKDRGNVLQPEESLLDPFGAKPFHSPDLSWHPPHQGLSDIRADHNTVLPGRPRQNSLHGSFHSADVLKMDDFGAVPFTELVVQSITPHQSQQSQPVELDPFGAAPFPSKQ
# Procedure text: Kinase binding displacement assay
# Assay context: no ATP present

Worked examples, 3 compounds total:
Compound | Reported value
O=C1Nc2cc(S(F)(F)(F)(F)F)ccc2/C1=C/c1ccc[nH]1 [Compound 11] | 187000 nM
Cc1[nH]c(/C=C2\C(=O)Nc3cc(S(F)(F)(F)(F)F)ccc32)c(C)c1CCC(=O)O [Compound 14] | > 1000 nM
Cc1[nH]c(/C=C2\C(=O)Nc3ccc(S(F)(F)(F)(F)F)cc32)c(C)c1CCC(=O)O [Compound 13] | > 1000 nM

// next entry
The observed IC50 for O=C1Nc2ccc(S(F)(F)(F)(F)F)cc2/C1=C/c1ccc[nH]1 [Compound 10] when tested with BMP2K (BMP-2-inducible protein kinase) (Homo sapiens, UniProt Q9NSY1) stands at 452 nM
